target: T1, KRPPGFSPFR-biotin; assay: Biacore, biotin-peptide on SA chip;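 note: purified antibodies injected as twofold dilutions from 0.1 to 10 nM in HBS-EP over streptavidin-captured biotinylated BKR1 or BKR2 ligand peptides, with a random-peptide flow cell as reference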
T1 construct: also called KD-b; KD-biotin
T1 peptide: KRPPGFSPFR-biotin
Ends that are not written are not given here.
Listing: koff of selected binders

# Binder, koff [s⁻¹]
rows = [
    ("humanized F151 variant HC2b/LC2a (antibody, human IgG1, V domains shown, also called LC2axHC2b) VH: QIQLVQSGAEVKKPGASVKVSCKASGYSFTDYNIYWVKQSPGKGLEWIGYFDPYNGNTGYNEKFRGKATLTVDKSSSTAYMHLSSLTSEESAVYYCANYYRYDDHAMDYWGQGTSVTVSS VL: DIVMTQSPSSLSASVGDRVTISCKSSQSLLYSSNQKNYLAWYQQKPGKSPKPLIYWASTRESGVPDRFSGSGSGTDFTLTISSVQAEDLATYYCQQYYSYPWTFGGGTKLEIK", "1.66e-06"),
    ("humanized F151 variant HC2c/LC2b (antibody, human IgG1, V domains shown, also called LC2bxHC2c) VH: QIQLVQSGAEVKKPGASVKVSCKASGYSFTDYNIYWVKQSPGKGLEWIGYFDPYNGNTGYNQKFRGKATLTVDKSSSTAYMHLSSKTSEESAVYYCANYYRYDDHAMDYWGQGTSVTVSS VL: DIVMTQSPSSLSASVGDRVTISCKSSQSLLYSSNQKNYLAWYQQKPGKSPKPLIYWASTRESGVPDRFSGSGSGTDFTLTISSVQAEDKATYYCQQYYSYPWTFGGGTKLEIK", "9.08e-06"),
    ("humanized F151 variant HC1/LC1 (antibody, V domains shown, also called LC1xHC1) VH: EIQLVQSGPEVKKPGASVKVSCKASGYSFTDYNIYWVKQSPGKSLEWIGYFDPYNGNTGYNQKFRGKATLTVDKSSSTAFMHLSSLTSEDSAVYYCANYYRYDDHAMDYWGQGTSVTVSS VL: DIVMSQSPSSLAASVGDRVTMSCKSSQSLLYSSNQKNYLAWYQQKPGKSPKPLIYWASTRESGVPDRFTGSGSGTDFTLTISSVQAEDLAIYYCQQYYSYPWTFGGGTKLEIK", "1.74e-07"),
    ("humanized F151 variant HC2a/LC2a (antibody, human IgG1, V domains shown, also called LC2axHC2a) VH: QIQLVQSGAEVKKPGASVKVSCKASGYSFTDYNIYWVKQSPGKGLEWIGYFDPYNGNTGYNQKFRGKATLTVDKSSSTAYMHLSSLTSEESAVYYCANYYRYDDHAMDYWGQGTSVTVSS VL: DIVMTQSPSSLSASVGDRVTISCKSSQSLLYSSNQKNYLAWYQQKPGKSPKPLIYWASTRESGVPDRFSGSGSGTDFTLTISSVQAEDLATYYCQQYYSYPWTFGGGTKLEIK", "6.12e-06"),
]
